Record form. Attribute: EC50. Fill in for each entry.
Biological target: human MOPr (Homo sapiens, UniProt P35372)
Sequence (P35372 whole entry): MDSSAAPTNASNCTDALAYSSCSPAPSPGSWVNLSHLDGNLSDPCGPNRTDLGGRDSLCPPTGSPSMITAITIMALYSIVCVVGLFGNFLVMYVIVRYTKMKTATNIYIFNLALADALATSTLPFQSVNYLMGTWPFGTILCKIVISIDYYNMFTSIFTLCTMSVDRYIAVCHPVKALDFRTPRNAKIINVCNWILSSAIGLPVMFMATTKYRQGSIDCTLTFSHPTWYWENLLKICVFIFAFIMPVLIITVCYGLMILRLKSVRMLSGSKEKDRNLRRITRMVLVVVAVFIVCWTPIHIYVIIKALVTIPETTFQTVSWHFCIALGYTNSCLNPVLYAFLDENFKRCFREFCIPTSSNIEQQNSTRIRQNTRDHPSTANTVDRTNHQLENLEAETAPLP
Assay: cell-based
Format: cell-based
Design: expressed in transfected cells; HEK293-Glo20F cells (cAMP)
Settings: Table 3B; read-out: MOPr (cAMP) EC50
Procedure: Stimulation by endogenous RF-amide peptides or test compounds for [^35S]-GTPγS binding to membranes from CHO cells expressing human NPFF1R or NPFF2R, were examined as reported. 1.6. […] The cAMP responses were measured in presence of D-luciferin (1 mM).
Starred links: 1 amine or outer side, 2 acyl side, 3 side chain; linkers in the order of their positions; H or OH if unused. Non-standard residues stand in square brackets, D forms with d. Residues, ends and D or L forms follow the SMILES beside them. Nva(5-(4-Bn-piperidin-1-yl)) = N[C@@H](CCCN1CCC(Cc2ccccc2)CC1)C(=O)O; Dmt = Cc1cc(O)cc(C)c1C[C@H](N)C(=O)O; NMeβAla = CN(CCC(=O)[*:2])[*:1]
Numbers only, in nM.

Observe how each entry below is paired with its result.
INSERT INTO assay_data (compound, observed_result) VALUES
  ('Cc1cc(O)cc(C)c1C[C@H](N)C(=O)N[C@H](CCCNC(=N)N)C(=O)N[C@H]1Cc2c(ccc3ccccc23)CN(CC(=O)N[C@@H](CCCN2CCC(Cc3ccccc3)CC2)C(=O)N[C@@H](Cc2ccccc2)C(N)=O)C1=O [DP0012, H-Dmt-D-Arg-1AnaGly-Bpa-Phe-NH2]', 15.1),
  ('Cc1cc(O)cc(C)c1C[C@H](N)C(=O)N[C@H](CCCNC(=N)N)C(=O)N[C@@H](Cc1ccccc1)C(=O)N(C)CCC(=O)N[C@@H](CCCN1CCC(Cc2ccccc2)CC1)C(=O)N[C@@H](Cc1ccccc1)C(N)=O [DP0013, H-Dmt-D-Arg-Phe-N(Me)-β-Ala-Bpa-Phe-NH2] (H-[Dmt][dR]F[NMeβAla][Nva(5-(4-Bn-piperidin-1-yl))]F-NH2)', 0.53);

query: State the recorded EC50 for this entry: Cc1cc(O)cc(C)c1C[C@H](N)C(=O)N[C@H](CCCNC(=N)N)C(=O)N[C@H]1Cc2ccccc2CN(CCC(=O)N[C@@H](CCCN2CCc3ccccc3C2)C(=O)N[C@@H](Cc2ccccc2)C(N)=O)C1=O [DP0026, H-Dmt-D-Arg-Aba-β-Ala-THIQ-Phe-NH2]
result: 2.4

====

target: NPFF2R (Homo sapiens, UniProt Q9Y5X5); assay: [35S]-GTPγS binding assay; assay type: biochemical; set-up: expressed in transfected cells
Sequence (Q9Y5X5 whole entry): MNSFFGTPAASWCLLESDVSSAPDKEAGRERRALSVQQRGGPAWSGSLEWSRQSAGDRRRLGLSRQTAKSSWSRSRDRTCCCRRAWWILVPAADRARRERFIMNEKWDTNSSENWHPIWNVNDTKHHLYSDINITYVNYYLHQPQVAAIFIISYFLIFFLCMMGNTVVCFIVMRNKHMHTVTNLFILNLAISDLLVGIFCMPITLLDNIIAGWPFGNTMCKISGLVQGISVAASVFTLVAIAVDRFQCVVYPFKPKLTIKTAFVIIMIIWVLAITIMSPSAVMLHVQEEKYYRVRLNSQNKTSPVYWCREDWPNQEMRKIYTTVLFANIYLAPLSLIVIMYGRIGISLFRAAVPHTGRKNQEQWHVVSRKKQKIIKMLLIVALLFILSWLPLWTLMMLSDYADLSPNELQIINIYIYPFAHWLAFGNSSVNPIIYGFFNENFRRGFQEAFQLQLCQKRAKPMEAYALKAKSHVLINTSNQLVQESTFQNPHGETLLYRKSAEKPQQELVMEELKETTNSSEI
Starred links: 1 amine or outer side, 2 acyl side, 3 side chain; linkers in the order of their positions; H or OH if unused. Non-standard residues stand in square brackets, D forms with d. Residues, ends and D or L forms follow the SMILES beside them. *: point of attachment. X1 = O=C1[C@@H](N[*:1])Cc2ccccc2CN1CCC(=O)[*:2]; Dmt = Cc1cc(O)cc(C)c1C[C@H](N)C(=O)O; X2 = c1ccc2[nH]c(*)nc2c1; X3 = c1ccc2oc(*)nc2c1; X4 = c1ccc2sc(*)nc2c1
measured attribute: log10(EC50) (log10 of the value in nM)
For clarity, the numbers are log10 values of EC50 expressed in nM.

INSERT INTO results (molecule, observed_result) VALUES
  ('Cc1cc(O)cc(C)c1C[C@H](N)C(=O)N[C@H](CCCNC(=N)N)C(=O)N[C@@H](Cc1ccccc1)C(N)=O [KGFF07, H-Dmt-D-Arg-Phe-NH2] (HELM PEPTIDE1{[Cc1cc(O)cc(C)c1C[C@H](N)C(=O)[*:2]].[dR].F.[am]}$$$$V2.0)', 3.29),
  ('Cc1cc(O)cc(C)c1C[C@H](N)C(=O)N[C@H](CCCNC(=N)N)C(=O)N[C@H]1Cc2ccccc2CN(CCC(=O)N[C@@H](CCCN2CCCCC2)C(=O)N[C@@H](Cc2ccccc2)C(N)=O)C1=O', 2.76),
  ('Cc1cc(O)cc(C)c1C[C@H](N)C(=O)N[C@H](CCCNC(=N)N)C(=O)N[C@H]1Cc2ccccc2CN(CCC(=O)N[C@@H](CCCCNc2nc3ccccc3[nH]2)C(=O)N[C@@H](Cc2ccccc2)C(N)=O)C1=O [KGFF14, H-Dmt-D-Arg-Aba-β-Ala-Lys(Bim)-Phe-NH2] (H-[Dmt][dR][X1]K(X2)F-NH2)', 1.95),
  ('Cc1cc(O)cc(C)c1C[C@H](N)C(=O)N[C@H](CCCNC(=N)N)C(=O)N[C@H]1Cc2ccccc2CN(CC(=O)N[C@@H](CCCNC(=N)N)C(=O)N[C@@H](Cc2ccccc2)C(N)=O)C1=O', 2.11),
  ('Cc1cc(O)cc(C)c1C[C@H](N)C(=O)N[C@H](CCCNC(=N)N)C(=O)N[C@H]1Cc2ccccc2CN(CC(=O)N[C@@H](CCCN)C(=O)N[C@@H](Cc2ccccc2)C(N)=O)C1=O', 2.98),
  ('Cc1cc(O)cc(C)c1C[C@H](N)C(=O)N[C@H](CCCNC(=N)N)C(=O)N[C@H]1Cc2ccccc2CN(CCC(=O)N[C@@H](CCCCNc2nc3ccccc3s2)C(=O)N[C@@H](Cc2ccccc2)C(N)=O)C1=O [KGFF16, H-Dmt-D-Arg-Aba-β-Ala-Lys(Bth)-Phe-NH2] (H-[Dmt][dR][X1]K(X4)F-NH2)', 2.72);

--- query ---
query: Could you share which log10(EC50) value was measured for Cc1cc(O)cc(C)c1C[C@H](N)C(=O)N[C@H](CCCNC(=N)N)C(=O)N[C@H]1Cc2ccccc2CN(CCC(=O)N[C@@H](CCCCNc2nc3ccccc3o2)C(=O)N[C@@H](Cc2ccccc2)C(N)=O)C1=O [KGFF15, H-Dmt-D-Arg-Aba-β-Ala-Lys(Box)-Phe-NH2] (H-[Dmt][dR][X1]K(X3)F-NH2) ?
result: 2.97
